The measurements presented in this section are drawn from patent US12577273B2.

Reported values of Kcat for individual entries
Molecular target: UniProt:Q9KK62
Sequence (Q9KK62 1-317): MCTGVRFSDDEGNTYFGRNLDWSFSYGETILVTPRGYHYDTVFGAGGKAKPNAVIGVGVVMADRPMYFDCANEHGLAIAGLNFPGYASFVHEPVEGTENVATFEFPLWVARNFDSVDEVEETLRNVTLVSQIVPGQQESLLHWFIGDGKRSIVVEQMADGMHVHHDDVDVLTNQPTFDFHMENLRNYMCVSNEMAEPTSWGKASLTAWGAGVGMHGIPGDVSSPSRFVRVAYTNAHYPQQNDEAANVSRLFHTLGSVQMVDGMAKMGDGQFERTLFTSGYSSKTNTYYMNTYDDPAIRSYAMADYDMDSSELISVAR
Assay: Enzyme kinetics (ninhydrin assay), B. longum BSH
Conditions: Table 1; substrate of B. longum BSH; PBS pH 7.5, 37° C.
Reply numerically in s⁻¹, unit not repeated.

{"columns": ["smilesStr", "property", "measValue"],
 "data": [
  ["C[C@H](CCC(=O)NCCS(=O)(=O)O)[C@H]1CC[C@H]2[C@@H]3[C@H](O)C[C@@H]4C[C@H](O)CC[C@]4(C)[C@H]3C[C@H](O)[C@]12C", "Kcat", 1.82],
  ["C[C@H](CCC(=O)NCCS(=O)(=O)O)[C@H]1CC[C@H]2[C@@H]3[C@@H](O)C[C@@H]4C[C@H](O)CC[C@]4(C)[C@H]3CC[C@]12C", "Kcat", 1.608],
  ["C[C@H](CCC(=O)NCCS(=O)(=O)O)[C@H]1CC[C@H]2[C@@H]3[C@H](O)C[C@@H]4C[C@H](O)CC[C@]4(C)[C@H]3CC[C@]12C", "Kcat", 1.807]
]}

// moving on: another record for Kcat
Task: Look at this molecule and give its reported Kcat. `C[C@H](CCC(=O)NCCS(=O)(=O)O)[C@H]1CC[C@H]2[C@@H]3CC[C@@H]4C[C@H](O)CC[C@]4(C)[C@H]3C[C@H](O)[C@]12C`
Output: 1.695
